target: aldosterone synthase (Homo sapiens); construct: host or cells: NCI-H295R; assay: Aldosterone cell secretion in Ang II-stimulated NCI-H295R cells (SPA with anti-aldosterone antibody); format: cell-based; details: human adrenocortical carcinoma NCI-H295R cells, 1 μM Ang II, 24 h; Enantiomer 2
Sequence (P19099 25-503): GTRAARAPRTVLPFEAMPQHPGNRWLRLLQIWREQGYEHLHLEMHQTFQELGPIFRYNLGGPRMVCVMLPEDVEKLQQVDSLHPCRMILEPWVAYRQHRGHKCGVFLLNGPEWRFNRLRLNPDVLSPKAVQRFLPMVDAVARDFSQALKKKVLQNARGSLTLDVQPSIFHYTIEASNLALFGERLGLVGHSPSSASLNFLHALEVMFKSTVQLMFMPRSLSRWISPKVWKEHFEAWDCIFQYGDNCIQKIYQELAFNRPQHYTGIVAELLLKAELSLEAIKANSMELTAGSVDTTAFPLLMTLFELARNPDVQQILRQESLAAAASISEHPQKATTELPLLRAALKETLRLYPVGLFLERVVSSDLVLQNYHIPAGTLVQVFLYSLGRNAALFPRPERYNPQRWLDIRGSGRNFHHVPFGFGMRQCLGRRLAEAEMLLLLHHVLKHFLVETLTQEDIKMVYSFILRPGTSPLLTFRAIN
metric: IC50 (nM)

{"molecule": "CCS(=O)(=O)NC(c1cncc(-c2ccc(C#N)c(OC)c2)c1)C1CC1 (single isomer, unassigned)", "recordedNumber": 41}
{"molecule": "CCS(=O)(=O)NC(C)c1cncc(-c2ccc(C#N)c(Cl)c2)c1 (single isomer, unassigned)", "recordedNumber": 74}
{"molecule": "CCS(=O)(=O)NC(C)c1cncc(-c2ccc(C#N)c(OC)c2)c1 (single isomer, unassigned)", "recordedNumber": 140}

###

Target: CYP11B1 (steroid 11 β-hydroxylase) (Homo sapiens)
Construct: the NCI-H295R cells have CYP11B1 (steroid 11 β-hydroxylase); host or cells: NCI-H295R
Sequence (P15538 25-503): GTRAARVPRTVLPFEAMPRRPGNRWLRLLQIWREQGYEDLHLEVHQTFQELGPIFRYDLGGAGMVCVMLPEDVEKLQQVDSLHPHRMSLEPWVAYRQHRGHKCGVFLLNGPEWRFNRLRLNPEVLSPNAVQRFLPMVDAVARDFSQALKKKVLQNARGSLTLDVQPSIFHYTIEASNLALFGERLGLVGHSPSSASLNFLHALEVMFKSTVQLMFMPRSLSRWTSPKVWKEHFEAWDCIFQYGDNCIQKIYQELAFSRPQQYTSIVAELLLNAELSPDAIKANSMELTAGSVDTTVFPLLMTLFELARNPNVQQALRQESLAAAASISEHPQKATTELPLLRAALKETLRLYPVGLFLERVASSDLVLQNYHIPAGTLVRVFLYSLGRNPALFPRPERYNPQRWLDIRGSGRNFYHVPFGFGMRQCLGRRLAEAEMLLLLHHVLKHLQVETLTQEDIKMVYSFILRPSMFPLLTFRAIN
Test: Cortisol cell secretion in NCI-H295R cells (in vitro inhibitory activity for CYP11B1)
Format: cell-based
Settings: NCI-H295R, compound at 1 μM

{"compound": "CCS(=O)(=O)NC(c1cncc(-c2ccc(OC(F)(F)F)cc2)c1)C1CC1 (centres unmarked)", "assayedTarget": "CYP11B1 (steroid 11 β-hydroxylase) (Homo sapiens)", "unitAbbreviation": "%", "inhibition at 1 µM": 20}
{"compound": "CCS(=O)(=O)NC(C)c1cncc(-c2ccc(C#N)c(OC)c2)c1 (single isomer, unassigned)", "assayedTarget": "CYP11B1 (steroid 11 β-hydroxylase) (Homo sapiens)", "unitAbbreviation": "%", "inhibition at 1 µM": 38}
{"compound": "CCCC(NS(=O)(=O)CC)c1cncc(-c2ccc(C#N)c(Cl)c2)c1 (racemic) [N-(1-(5-(3-chloro-4-cyanophenyl)pyridin-3-yl)butyl)ethanesulfonamide: Racemate]", "assayedTarget": "CYP11B1 (steroid 11 β-hydroxylase) (Homo sapiens)", "unitAbbreviation": "%", "inhibition at 1 µM": 25}
{"compound": "CCS(=O)(=O)NCc1cncc(-c2nc3ccc(Cl)cc3n2C)c1", "assayedTarget": "CYP11B1 (steroid 11 β-hydroxylase) (Homo sapiens)", "unitAbbreviation": "%", "inhibition at 1 µM": 24}
{"compound": "CCS(=O)(=O)N[C@H](c1cncc(-c2ccc(C#N)c(Cl)c2)c1)C1CC1", "assayedTarget": "CYP11B1 (steroid 11 β-hydroxylase) (Homo sapiens)", "unitAbbreviation": "%", "inhibition at 1 µM": 38}
